molecular target: Mitogen-activated protein kinase kinase kinase 2 (Homo sapiens); test: modulators of MEK5 binding to wildtype MEKK2, primary screen, biochemical, multiplex bead flow cytometry, Alexa488-MEK5 (AID 1531); conditions: Alexa488-MEK5 binding to MEKK2 WT, at 10 µM, actives lie on both sides
Hit rate of the full screen: of about 290,000 compounds, about 3,300 (1.1%) were called active. The entries come from a sample that favours actives as a whole.
Would you kindly list binding response (% of control) for each of these compounds?

Below, each entry is followed by its recorded binding response (% of control) result.
[
  {
    "compound": "COc1ccc(NC(=O)NCCN2CCN(c3ccc(C)cc3)CC2)c(Cl)c1",
    "result": "113% (inactive)"
  },
  {
    "compound": "Cc1[nH]c2ccccc2c1/C=N/NC(=O)CNC(=O)c1ccc2c(c1)OCO2",
    "result": "100% (inactive)"
  },
  {
    "compound": "COCCNC(=S)N/N=C/c1c(C)[nH]c2ccccc12",
    "result": "24% (active)"
  }
]

Hey, quick one: what's binding response (% of control) for each of these?
1. COc1cc2c(cc1OC)C(c1ccncc1)CC(=O)N2 (stereo unspecified)
2. CN(C)CCCNC(=S)N1CCN(c2nc(-c3ccccc3)cs2)CC1

1: 117% (inactive); 2: 149% (active)

Requested read-out: binding response (% of control). Entry: COc1ccc(C2CC(=O)Nc3cc(C)c(C)cc32)c(OC)c1OC (stereo unspecified)
-2% [inhibitor] (active)
